These measurements were taken from patent US9695200B2.

# Test system: phospho-PLCγ1 in Jurkat cells
# Test Summary: ITK target modulation PLC-γ assay (phospho-PLCγ1, αCD3-stimulated Jurkat cells)
# Type: cell-based, human
# Condition Summary: Homo sapiens, 1 hour compound incubation, αCD3 Dynabeads stimulation 8 minutes, MSD phospho-PLCγ1, read-out: PLC-γ Inhibition IC50
Readout: IC50

Examples from the recorded data:
- Cpd Smiles: "Cc1cc(-c2c[nH]c3ncc(-c4cccc(/C=C(\\C#N)C(N)=O)c4)cc23)ccn1"
  IC50: "1 to 5 µM"
- Cpd Smiles: "C=CC(=O)Nc1cccc(-c2cnc3[nH]cc(-c4ccc(OC)nc4)c3c2)c1"
  IC50: "1 to 5 µM"

Returns the measured IC50 for the input molecule. Input: `C=CC(=O)Nc1cccc(-c2cnc3[nH]cc(-c4ccc(=O)n(CC5CC5)c4)c3c2)c1`
< 1 µM

Quick check: IC50 of `C=CC(=O)Nc1cccc(-c2cnc3[nH]cc(-c4cncc5[nH]ccc45)c3c2)c1` ?
> 5 µM
